- TARGET OR TEST SYSTEM: Voltage-gated inwardly rectifying potassium channel KCNH2 (Homo sapiens, UniProt Q12809); further: assay procedure not described here
- Sequence (Q12809 whole entry): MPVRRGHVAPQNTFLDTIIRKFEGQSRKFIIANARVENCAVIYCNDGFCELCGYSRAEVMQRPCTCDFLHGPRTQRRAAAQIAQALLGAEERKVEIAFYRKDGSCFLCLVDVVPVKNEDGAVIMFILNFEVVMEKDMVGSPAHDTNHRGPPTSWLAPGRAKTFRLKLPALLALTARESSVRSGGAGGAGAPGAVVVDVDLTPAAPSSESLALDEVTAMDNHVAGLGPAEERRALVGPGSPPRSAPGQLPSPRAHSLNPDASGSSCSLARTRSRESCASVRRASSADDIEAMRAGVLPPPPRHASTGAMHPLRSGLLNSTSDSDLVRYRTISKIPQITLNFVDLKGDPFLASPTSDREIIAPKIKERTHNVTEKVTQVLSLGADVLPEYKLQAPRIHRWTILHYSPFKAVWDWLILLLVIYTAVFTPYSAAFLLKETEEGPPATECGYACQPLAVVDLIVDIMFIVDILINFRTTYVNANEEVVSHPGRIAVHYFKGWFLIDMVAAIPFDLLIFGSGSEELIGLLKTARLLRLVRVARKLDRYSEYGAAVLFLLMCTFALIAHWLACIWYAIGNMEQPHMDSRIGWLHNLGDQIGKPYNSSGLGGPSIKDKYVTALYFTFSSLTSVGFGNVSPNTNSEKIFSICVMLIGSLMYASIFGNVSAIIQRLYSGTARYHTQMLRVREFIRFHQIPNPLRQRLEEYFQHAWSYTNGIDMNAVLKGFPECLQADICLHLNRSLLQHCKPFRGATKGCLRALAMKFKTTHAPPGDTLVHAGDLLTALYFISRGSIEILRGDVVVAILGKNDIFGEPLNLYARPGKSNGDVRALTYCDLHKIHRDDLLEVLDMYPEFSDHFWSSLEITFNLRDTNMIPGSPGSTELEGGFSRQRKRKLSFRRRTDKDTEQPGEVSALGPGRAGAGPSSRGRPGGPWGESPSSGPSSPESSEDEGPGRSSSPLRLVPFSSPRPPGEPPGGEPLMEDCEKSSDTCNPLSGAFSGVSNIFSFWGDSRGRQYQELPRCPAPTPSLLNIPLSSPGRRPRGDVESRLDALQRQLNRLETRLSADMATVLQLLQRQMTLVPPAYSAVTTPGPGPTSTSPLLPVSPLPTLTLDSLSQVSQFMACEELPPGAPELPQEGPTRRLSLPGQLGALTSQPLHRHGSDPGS
- Type: functional
- TEST SETTINGS: read-out: AC50; further: assay procedure not described here
ENDPOINT NAME: AC50

COMPOUND | TARGET OR TEST SYSTEM | AC50
Cc1cn([C@H]2C[C@H](N=[N+]=[N-])[C@@H](CO)O2)c(=O)[nH]c1=O | Voltage-gated inwardly rectifying potassium channel KCNH2 (Homo sapiens, UniProt Q12809) | > 30 µM
CCCCS(=O)(=O)N[C@@H](Cc1ccc(OCCCCC2CCNCC2)cc1)C(=O)O | Voltage-gated inwardly rectifying potassium channel KCNH2 (Homo sapiens, UniProt Q12809) | > 30 µM
C=CCC1(CC(C)C)C(=O)NC(=O)NC1=O | Voltage-gated inwardly rectifying potassium channel KCNH2 (Homo sapiens, UniProt Q12809) | > 30 µM

# AC50 (compound: CCN1CCCC1CNC(=O)c1cc(S(N)(=O)=O)ccc1OC (centres undefined) [SULPIRIDE] ) is > 30 µM

CCC(CC)(CC(=O)Nc1cccc(/C=C/c2nc(C3CCC3)cs2)c1)C(=O)O yielded AC50 of > 30 µM

----------
- TARGET OR TEST SYSTEM: 5-hydroxytryptamine receptor 1A (Homo sapiens); further: assay procedure not described here
- Sequence (P08908 whole entry): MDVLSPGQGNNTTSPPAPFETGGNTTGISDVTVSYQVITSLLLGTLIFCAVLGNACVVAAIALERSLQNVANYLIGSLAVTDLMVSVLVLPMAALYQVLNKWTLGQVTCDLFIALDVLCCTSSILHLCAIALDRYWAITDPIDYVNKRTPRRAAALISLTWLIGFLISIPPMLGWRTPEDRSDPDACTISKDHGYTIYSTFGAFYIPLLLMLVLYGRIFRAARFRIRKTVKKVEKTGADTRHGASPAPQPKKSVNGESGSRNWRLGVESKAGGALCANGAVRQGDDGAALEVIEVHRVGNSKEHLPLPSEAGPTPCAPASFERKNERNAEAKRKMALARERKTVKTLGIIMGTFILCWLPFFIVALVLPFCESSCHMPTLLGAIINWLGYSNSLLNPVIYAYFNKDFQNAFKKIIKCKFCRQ
- Type: functional, cell-based
ENDPOINT NAME: AC50

MOLECULE | VALUE OBSERVED
COC(=O)[C@H]1[C@H]2C[C@@H]3c4[nH]c5cc(OC)ccc5c4CCN3C[C@H]2C[C@@H](OC(=O)/C=C/c2cc(OC)c(OC)c(OC)c2)[C@@H]1OC [RESCINNAMINE] | > 10 µM
Cc1nnc2n1-c1ccc(Cl)cc1C(c1ccccc1Cl)=NC2 [TRIAZOLAM] | > 10 µM
CC(C)(C)C(=O)Oc1ccc(S(=O)(=O)Nc2ccccc2C(=O)NCC(=O)O)cc1 | > 30 µM

The molecule listed as CCC(C(=O)O)c1ccc(N2Cc3ccccc3C2=O)cc1 (centres undefined) [INDOBUFEN] shows AC50 equal to 1.9 µM

----------
So I've got AC50 readings for Neuronal acetylcholine receptor subunit alpha-4 (Homo sapiens), take a look.

// solved cases for AC50 follow
MOLECULE | ENDPOINT NAME | VALUE OBSERVED
CO[C@@H]1[C@@H](O[C@@H]2O[C@H](C)[C@@H](O[C@H]3C[C@@](C)(O)[C@@H](OC(=O)CC(C)C)[C@H](C)O3)[C@H](N(C)C)[C@H]2O)[C@@H](CC=O)C[C@@H](C)[C@@H](O)/C=C/C=C/C[C@@H](C)OC(=O)C[C@H]1OC(C)=O [JOSAMYCIN] | AC50 | > 10 µM
CC(=O)Nc1ccc(O)cc1 [ACETAMINOPHEN] | AC50 | > 30 µM

We next turn to a different molecule, shown below.
// molecule CCCCc1ncc(/C=C(\Cc2cccs2)C(=O)O)n1Cc1ccc(C(=O)O)cc1 [EPROSARTAN] , assay Neuronal acetylcholine receptor subunit alpha-4 (Homo sapiens), AC50 value: > 10 µM

----------
Test system Sodium-dependent serotonin transporter (Homo sapiens), AC50 listed for each of the molecules. Further: assay procedure not described here.

MOLECULE | AC50
CCCCN1C[C@H](O)[C@@H](O)[C@H](O)[C@H]1CO | > 30 µM
COc1ccccc1OCC(O)CN1CCN(CC(=O)Nc2c(C)cccc2C)CC1 (stereo not given) | > 30 µM
COc1ccccc1OCCNCC(O)c1ccc(C)c(S(N)(=O)=O)c1 (stereo not given) | 29 µM
CC(CC(c1ccccc1)c1ccccc1)NC(C)(C)C (stereo not given) | > 30 µM
COCCCN1CCC(NC(=O)c2cc(Cl)c(N)c3c2OCC3)CC1 [PRUCALOPRIDE] | > 30 µM

Next molecule, AC50 to be filled in.
Kindly note the recorded AC50 for CCOC(=O)[N-]c1cn(N2CCOCC2)n[o+]1 , which is > 30 µM
